# measured_target: T1, recombinant human soluble gpNMB (recombinant human gpNMB-FLAG-His) (human, UniProt Q14956 23-498)
# T1 sequence: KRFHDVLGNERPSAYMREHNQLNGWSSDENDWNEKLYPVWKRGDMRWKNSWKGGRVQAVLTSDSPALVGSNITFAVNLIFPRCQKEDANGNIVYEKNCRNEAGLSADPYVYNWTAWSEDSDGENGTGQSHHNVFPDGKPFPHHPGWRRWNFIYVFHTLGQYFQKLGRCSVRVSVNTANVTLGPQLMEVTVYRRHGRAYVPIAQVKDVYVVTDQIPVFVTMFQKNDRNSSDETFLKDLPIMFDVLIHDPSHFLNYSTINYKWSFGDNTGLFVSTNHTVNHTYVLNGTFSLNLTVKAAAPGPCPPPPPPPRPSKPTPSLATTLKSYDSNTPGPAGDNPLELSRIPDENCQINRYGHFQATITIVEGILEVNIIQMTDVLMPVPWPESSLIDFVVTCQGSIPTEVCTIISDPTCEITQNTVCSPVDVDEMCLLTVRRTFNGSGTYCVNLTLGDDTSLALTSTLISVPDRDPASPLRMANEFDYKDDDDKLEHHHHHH
# protocol: antigen ELISA, vs hGPN06-1_H1L1
Entries whose Relative binding activity is below 1 take class 1; entries at or above 1 take class 0.

Reference set (2 entries):
[[record]]
binder = "hGPN06-1_H1L1 VH N63A (antibody, V domains shown) VH: QVQLVQSGAEVKKPGASVKVSCKASGYTFTDNWMGWVKQRPGQGLEWIGAIDPSDSFTNYNQAFKGRVTMTVDTSISTAYMELSRLRSDDSAVYFCTRSGYYGSPKLGGDYWGQGTLVTVSS VL: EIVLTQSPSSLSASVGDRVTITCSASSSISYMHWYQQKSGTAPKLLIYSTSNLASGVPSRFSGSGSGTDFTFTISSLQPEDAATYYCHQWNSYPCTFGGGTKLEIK"
label_value = "class 0"

[[record]]
binder = "hGPN06-1_H1L1 VH W33A (antibody, V domains shown) VH: QVQLVQSGAEVKKPGASVKVSCKASGYTFTDNAMGWVKQRPGQGLEWIGAIDPSDSFTNYNQNFKGRVTMTVDTSISTAYMELSRLRSDDSAVYFCTRSGYYGSPKLGGDYWGQGTLVTVSS VL: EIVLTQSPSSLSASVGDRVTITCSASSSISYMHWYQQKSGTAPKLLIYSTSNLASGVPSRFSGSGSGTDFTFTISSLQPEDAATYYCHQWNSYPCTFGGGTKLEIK"
label_value = "class 1"


Incoming: Is 1 strictly greater than the binder's reported Relative binding activity? binder: hGPN06-1_H1L1 VH N61A (antibody, V domains shown) VH: QVQLVQSGAEVKKPGASVKVSCKASGYTFTDNWMGWVKQRPGQGLEWIGAIDPSDSFTNYAQNFKGRVTMTVDTSISTAYMELSRLRSDDSAVYFCTRSGYYGSPKLGGDYWGQGTLVTVSS VL: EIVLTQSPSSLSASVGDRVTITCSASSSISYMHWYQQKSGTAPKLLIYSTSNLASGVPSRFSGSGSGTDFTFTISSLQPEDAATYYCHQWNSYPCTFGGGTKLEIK
Outgoing: class 1

Incoming: Answer whether the binder hGPN06-1_H1L1 VH M34A (antibody, V domains shown) VH: QVQLVQSGAEVKKPGASVKVSCKASGYTFTDNWAGWVKQRPGQGLEWIGAIDPSDSFTNYNQNFKGRVTMTVDTSISTAYMELSRLRSDDSAVYFCTRSGYYGSPKLGGDYWGQGTLVTVSS VL: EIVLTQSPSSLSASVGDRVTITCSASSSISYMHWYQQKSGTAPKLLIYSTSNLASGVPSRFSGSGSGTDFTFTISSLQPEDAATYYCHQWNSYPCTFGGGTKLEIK has Relative binding activity strictly less than 1
Outgoing: class 0

Incoming: In the record for hGPN06-1_H1L1 VH F29A (antibody, V domains shown) VH: QVQLVQSGAEVKKPGASVKVSCKASGYTATDNWMGWVKQRPGQGLEWIGAIDPSDSFTNYNQNFKGRVTMTVDTSISTAYMELSRLRSDDSAVYFCTRSGYYGSPKLGGDYWGQGTLVTVSS VL: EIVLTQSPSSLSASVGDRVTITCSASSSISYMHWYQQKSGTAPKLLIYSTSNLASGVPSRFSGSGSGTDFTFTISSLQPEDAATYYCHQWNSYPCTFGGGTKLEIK , is Relative binding activity less than 1?
Outgoing: class 1

Incoming: Record hGPN06-1_H1L1 VH K65A (antibody, V domains shown) VH: QVQLVQSGAEVKKPGASVKVSCKASGYTFTDNWMGWVKQRPGQGLEWIGAIDPSDSFTNYNQNFAGRVTMTVDTSISTAYMELSRLRSDDSAVYFCTRSGYYGSPKLGGDYWGQGTLVTVSS VL: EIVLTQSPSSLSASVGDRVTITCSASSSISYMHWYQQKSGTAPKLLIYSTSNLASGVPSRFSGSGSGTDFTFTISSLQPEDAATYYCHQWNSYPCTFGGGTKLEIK : is its Relative binding activity strictly below 1?
Outgoing: class 0
